tested on: SNB-75 CNS; assay: NCI-60 one-dose screen, 48 h; details: 10 µM unless noted
This is part of a sample that, as a whole, favours compounds with a hit. Of some 83,000 tested, about 20% had one in any assay. Activity calls are given as the source filed them. Rule for the calls: active = growth percent below 10; inactive = the rest.
Possible outcomes: 1 (yes) (active), 0 (no) (inactive)

{"sample_smiles": "CCOC(=O)c1c(Nc2ccccc2)nn2c(-c3ccccc3)ccnc12", "class_assignment": "0 (no)"}
{"sample_smiles": "ClC(Cl)c1nc(-c2ccco2)n2nc(-c3ccccc3)cc2n1", "class_assignment": "0 (no)"}
{"sample_smiles": "CC(=O)Nc1cccc(Nc2nc(N[C@@H](C)c3ccccc3)c3ccccc3n2)c1", "class_assignment": "1 (yes)"}
{"sample_smiles": "O=C(CCn1c[n+](CC(=O)c2ccc(F)cc2)c2ccccc21)Nc1cccc2cccnc12", "class_assignment": "0 (no)"}
{"sample_smiles": "N/C(=N\\C(N)=N\\c1nc2ccccc2s1)c1cccc(F)c1", "class_assignment": "0 (no)"}

###

tested on: OVCAR-5 ovarian; assay: NCI-60 one-dose screen, 48 h; details: 10 µM unless noted
Compounds without any hit were thinned out: in the full panel of roughly 83,000, 20% have a hit. Active and inactive are the calls of the source. The calls were made as follows: active = growth percent below 10; inactive = the rest.
Classes used: active, inactive

{"molecule": "O=C(CN1CCN(c2cc(=O)n(-c3ccccc3)c3ccccc23)CC1)Nc1nc(-c2ccc(Cl)cc2)cs1", "class_assignment": "inactive"}
{"molecule": "N#Cc1cnc2ccc(-c3cnc4[nH]ncc4c3)cc2c1N1CCc2cc(F)c(Cl)cc21", "class_assignment": "inactive"}
{"molecule": "O=C(Nc1nc2ccc([N+](=O)[O-])cc2s1)Nc1ccccc1Cl", "class_assignment": "inactive"}
{"molecule": "C=C1CC[C@@H]2[C@]3(C)COC(c4ccccc4)O[C@@H]3CC[C@@]2(C)[C@@H]1C/C=C1/C(=O)OC[C@H]1O (stereo partly drawn)", "class_assignment": "inactive"}
{"molecule": "COc1ccc(C2c3sc4c(C)cccc4c3Oc3nc(CC(=O)Nc4ccccc4)[nH]c(=O)c32)cc1 (stereo not drawn)", "class_assignment": "inactive"}
{"molecule": "COc1ccc(Oc2ccc(/C=N/NC(=O)CSc3nc4ccccc4c(=O)n3-c3ccc(Cl)cc3)cc2)cc1", "class_assignment": "inactive"}
{"molecule": "C#C[C@]1(O)CC[C@H]2[C@@H]3CC=C4c5sc(-c6cccc(O)c6)nc5CC[C@]4(C)[C@H]3CC[C@@]21C", "class_assignment": "active"}
{"molecule": "CC(C)(C)c1ccc(CC(=O)Nc2sc3c(c2C(N)=O)CCC(=O)C3)cc1", "class_assignment": "active"}

###

Test system: HCT-15 colon
Assay: NCI-60 one-dose screen, 48 h (100 = growth as untreated, 0 = no growth, -100 = all killed)
Details: 10 µM unless noted
Protocol: Growth inhibition of the HCT-15 human tumor cell line is measured as a screen for anti-cancer activity. Cells are grown in 96 well plates and exposed to the test compound for 48 hours. Compounds are tested at a single concentration, which is 10^-5 M for most compounds. The reported endpoint is percent growth (GI% or GIPRCNT), where numbers from 0 - 100% represent growth inhibition, and numbers from -100% - 0 represent cell death. For example, a value of 40 represents 60% growth inhibition. […]
About 83,000 compounds went through this panel and 20% of them were active in at least one assay; those are over-represented in the sample as a whole.
Rule: growth below 60% gives true (1), anything at or above gives false (0).

{"sample_smiles": "COc1ccc(-c2nn(-c3ccc(S(C)(=O)=O)cc3)cc2/C=N/O)cc1", "class_assignment": "false (0)"}
{"sample_smiles": "Brc1ccccc1/C=N/Nc1nc(N/N=C/c2ccccc2Br)nc(N2CCOCC2)n1", "class_assignment": "false (0)"}
{"sample_smiles": "Cc1ccc(-n2cc(/C=N/NC(=O)c3ccncc3)c(-c3ccc(S(C)(=O)=O)cc3)n2)cc1", "class_assignment": "true (1)"}
{"sample_smiles": "COc1cc(OC)c(S(N)(=O)=O)cc1C(=O)/C=C/c1ccc(Cl)cc1", "class_assignment": "true (1)"}
{"sample_smiles": "CS(=O)(=O)Nc1cc(-c2ccc3ncc(C#N)c(Nc4cccc(Cl)c4F)c3c2)cnc1Cl", "class_assignment": "true (1)"}
{"sample_smiles": "Nc1ncc(-c2ccc(NS(=O)(=O)c3ccc(Cl)c(Cl)c3)cc2)[nH]1", "class_assignment": "false (0)"}
{"sample_smiles": "O=S(=O)(Nc1cccc2ccccc12)c1ccc(-c2cnc(C3CC3)o2)cc1", "class_assignment": "true (1)"}
